These measurements were taken from paper PMC4958397.

Tested on: Escherichia coli ATCC 25922
Assay: Broth microdilution MIC
Format: cell-based
Details: broth microdilution; NA means inactive
Protocol: […] A broth microdilution method was used to evaluate the minimum inhibition concentration (MIC) according to the CLSI document (CLSI performance standards for antimicrobial susceptibility testing, 2008, Eighteenth International Supplement, CLSI document M7-MIC, Clinical Laboratory Standards Institute, Wayne) with some modifications. […] After incubation, the panel was digitally analyzed at 600 nm using the microplate reader Bio Tech Synergy (USA) with a dedicated software system. […]
Outcome measure: Minimum inhibitory concentration (MIC), E. coli (µg/mL)

{"Compound": "O=C(NNC(=S)Nc1ccc(Cl)cc1Cl)c1ccccn1 [Compound 4]", "System name": "Escherichia coli ATCC 25922", "Quantitative result": 62.5}
{"Compound": "CSc1ccc(NC(=S)NNC(=O)c2cccnc2)cc1 [Compound 6]", "System name": "Escherichia coli ATCC 25922", "Quantitative result": 62.5}
{"Compound": "CO/N=C(\\C(=O)N[C@@H]1C(=O)N2C(C(=O)O)=C(C[N+]3(C)CCCC3)CS[C@H]12)c1csc(N)n1.Cl.[Cl-] [Cefepime, cefepime dihydrochloride, reference compound]", "System name": "Escherichia coli ATCC 25922", "Quantitative result": 0.015}
{"Compound": "O=C(NNC(=S)Nc1ccccc1F)c1ccccn1 [Compound 1]", "System name": "Escherichia coli ATCC 25922", "Quantitative result": 62.5}
{"Compound": "O=C(NNC(=S)Nc1ccccc1Cl)c1ccccn1 [Compound 2]", "System name": "Escherichia coli ATCC 25922", "Quantitative result": 62.5}
